- assay_explanation: Fraction of unbound in rat brain
Measured Fu by item
measurement_kind: Fu (%)

>  <compound>
COc1c(C#N)ccc2[nH]c(-c3cn4c(n3)[C@H](c3ccccc3C(F)(F)F)OCC4)cc12 (single isomer, unassigned)

>  <value_measured>
0.21

$$$$
>  <compound>
COc1c(C#N)ccc2[nH]c(-c3nc4n(n3)CCO[C@H]4c3cccc(F)c3C)cc12

>  <value_measured>
0.17

$$$$
>  <compound>
COc1nc(-c2nc(Nc3cc(F)cc(C(F)(F)F)c3)n(C)n2)ccc1-n1cnc(C)c1

>  <value_measured>
0.5

$$$$
>  <compound>
COc1c(C#N)ccc2[nH]c(-c3cn4c(n3)[C@H](c3ccc(F)cc3C)OCC4)cc12

>  <value_measured>
0.23

$$$$
>  <compound>
COc1c(C#N)ccc2[nH]c(-c3cn4c(n3)[C@H](c3cccc(F)c3C)OCC4)cc12

>  <value_measured>
0.22

$$$$
>  <compound>
COc1c(C#N)ccc2[nH]c(-c3cn4c(n3)[C@H](c3ccccc3Cl)OCC4)cc12

>  <value_measured>
0.47

$$$$
>  <compound>
COc1c(C#N)ccc2[nH]c(-c3nc4n(n3)CCO[C@H]4c3cccc(F)c3C(F)(F)F)cc12

>  <value_measured>
0.09

$$$$

* * *

- target_under_test: hERG (KCNH2) (Homo sapiens)
- Sequence (Q12809 whole entry): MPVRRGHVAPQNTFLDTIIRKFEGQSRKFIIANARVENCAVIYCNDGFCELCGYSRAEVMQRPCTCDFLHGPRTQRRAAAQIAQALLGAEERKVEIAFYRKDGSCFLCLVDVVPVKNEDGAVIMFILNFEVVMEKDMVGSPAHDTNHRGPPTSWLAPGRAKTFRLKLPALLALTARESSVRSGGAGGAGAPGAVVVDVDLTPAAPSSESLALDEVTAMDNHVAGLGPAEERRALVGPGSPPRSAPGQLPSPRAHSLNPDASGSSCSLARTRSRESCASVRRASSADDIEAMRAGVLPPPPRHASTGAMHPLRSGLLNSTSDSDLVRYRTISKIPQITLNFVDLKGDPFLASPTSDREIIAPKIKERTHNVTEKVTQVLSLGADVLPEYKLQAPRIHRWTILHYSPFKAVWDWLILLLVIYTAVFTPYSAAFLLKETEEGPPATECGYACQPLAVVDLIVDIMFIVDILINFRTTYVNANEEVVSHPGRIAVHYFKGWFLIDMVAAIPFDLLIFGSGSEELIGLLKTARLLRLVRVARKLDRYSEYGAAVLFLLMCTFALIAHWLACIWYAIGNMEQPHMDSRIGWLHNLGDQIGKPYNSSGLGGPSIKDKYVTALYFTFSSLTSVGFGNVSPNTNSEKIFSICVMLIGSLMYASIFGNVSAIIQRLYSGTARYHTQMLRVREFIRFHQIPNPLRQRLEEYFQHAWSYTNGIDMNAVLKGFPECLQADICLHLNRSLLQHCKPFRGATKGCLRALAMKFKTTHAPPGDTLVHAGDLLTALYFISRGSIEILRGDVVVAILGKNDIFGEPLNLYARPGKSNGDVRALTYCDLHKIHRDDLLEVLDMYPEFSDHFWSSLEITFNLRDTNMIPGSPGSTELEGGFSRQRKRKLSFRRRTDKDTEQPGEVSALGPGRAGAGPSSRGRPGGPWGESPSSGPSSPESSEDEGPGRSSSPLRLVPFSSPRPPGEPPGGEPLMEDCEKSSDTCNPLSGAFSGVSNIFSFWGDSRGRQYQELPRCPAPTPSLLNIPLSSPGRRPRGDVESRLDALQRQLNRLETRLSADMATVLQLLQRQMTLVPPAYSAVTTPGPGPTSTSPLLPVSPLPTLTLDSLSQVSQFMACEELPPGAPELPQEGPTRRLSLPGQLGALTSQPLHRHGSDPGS
- assay_explanation: Inhibition of human ERG assessed as inhibition of IKr current at 3 uM by patch express assay

>  <smiles_structure>
COc1nc(-c2nc(Nc3cc(F)cc(C(F)(F)F)c3)n(C)n2)ccc1-n1cnc(C)c1

>  <target_under_test>
hERG (KCNH2) (Homo sapiens)

>  <inhibition at 3 µM (%)>
52

$$$$
>  <smiles_structure>
COc1c(C#N)ccc2[nH]c(-c3cn4c(n3)[C@H](c3cccc(F)c3C)OCC4)cc12

>  <target_under_test>
hERG (KCNH2) (Homo sapiens)

>  <inhibition at 3 µM (%)>
31

$$$$

* * *

- target_under_test: Cytochrome P450 2D6 (Homo sapiens, UniProt P10635)
- Sequence (P10635 whole entry): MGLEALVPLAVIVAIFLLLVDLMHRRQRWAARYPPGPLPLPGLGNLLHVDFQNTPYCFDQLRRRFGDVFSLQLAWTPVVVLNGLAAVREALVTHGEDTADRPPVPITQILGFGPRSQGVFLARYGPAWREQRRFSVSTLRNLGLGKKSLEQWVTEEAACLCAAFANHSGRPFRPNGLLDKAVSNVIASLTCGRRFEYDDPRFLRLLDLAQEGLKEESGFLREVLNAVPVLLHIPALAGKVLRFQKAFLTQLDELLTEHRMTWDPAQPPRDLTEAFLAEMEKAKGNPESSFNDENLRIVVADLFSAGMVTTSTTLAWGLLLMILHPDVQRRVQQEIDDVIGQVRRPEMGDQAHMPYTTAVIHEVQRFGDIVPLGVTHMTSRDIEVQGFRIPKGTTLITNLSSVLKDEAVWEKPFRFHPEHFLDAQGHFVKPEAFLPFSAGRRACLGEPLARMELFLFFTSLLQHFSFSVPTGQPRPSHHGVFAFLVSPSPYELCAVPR

>  <smiles_structure>
COc1c(C#N)ccc2[nH]c(-c3cn4c(n3)[C@H](c3cccc(F)c3C)OCC4)cc12

>  <unit_spec>
µM

>  <IC50>
9.8

$$$$

* * *

- assay_explanation: Lipophilicity, log P of the compound
- Assay type: physicochemical
- particulars: octanol/water
Below, each of the compounds is paired with its reported logP value.

>  <smiles_structure>
COc1c(C#N)ccc2[nH]c(-c3cn4c(n3)[C@H](c3cccc(F)c3C)OCC4)cc12

>  <logP>
4.19

$$$$
>  <smiles_structure>
COc1nc(-c2nc(Nc3cc(F)cc(C(F)(F)F)c3)n(C)n2)ccc1-n1cnc(C)c1

>  <logP>
4.24

$$$$

* * *

log10 of concentration at 4 h listing for selected compounds.
- assay_explanation: Drug concentration in mouse plasma at 30 mg/kg, po measured after 4 hrs by LC/MS/MS method
- Type: ADME, organism-based
measurement_kind: log10 of concentration at 4 h (log10 of the value in µM)

>  <compound>
COc1c(C#N)ccc2[nH]c(-c3nc4n(n3)CCO[C@H]4c3cccc(F)c3C(F)(F)F)cc12

>  <log10 of concentration at 4 h>
0.23

$$$$
>  <compound>
COc1c(C#N)ccc2[nH]c(-c3cn4c(n3)[C@H](c3c(F)cccc3C(F)(F)F)OCC4)cc12

>  <log10 of concentration at 4 h>
1.05

$$$$
>  <compound>
COc1c(C#N)ccc2[nH]c(-c3nc4n(n3)CCCC4c3ccc(F)cc3C)cc12 (racemic)

>  <log10 of concentration at 4 h>
-0.12

$$$$
>  <compound>
COc1c(C#N)ccc2[nH]c(-c3nc4n(n3)CCO[C@H]4c3ccccc3C(F)(F)F)cc12

>  <log10 of concentration at 4 h>
0.73

$$$$
>  <compound>
COc1c(C#N)ccc2[nH]c(-c3cn4c(n3)[C@H](c3ccc(F)cc3C)OCC4)cc12

>  <log10 of concentration at 4 h>
0.96

$$$$
>  <compound>
COc1c(C#N)ccc2[nH]c(-c3nc4n(n3)CCO[C@H]4c3ccc(F)cc3C)cc12

>  <log10 of concentration at 4 h>
0.18

$$$$
>  <compound>
COc1c(C#N)ccc2[nH]c(-c3cn4c(n3)[C@H](c3cc(C(F)(F)F)ccc3F)OCC4)cc12

>  <log10 of concentration at 4 h>
1.03

$$$$
>  <compound>
COc1c(C#N)ccc2[nH]c(-c3cn4c(n3)[C@H](c3ccccc3C(F)(F)F)OCC4)cc12 (single isomer, unassigned)

>  <log10 of concentration at 4 h>
0.92

$$$$
>  <compound>
COc1nc(-c2nc(Nc3cc(F)cc(C(F)(F)F)c3)n(C)n2)ccc1-n1cnc(C)c1

>  <log10 of concentration at 4 h>
1.25

$$$$
>  <compound>
COc1c(C#N)ccc2[nH]c(-c3cn4c(n3)C(c3ccc(F)cc3C)CCC4)cc12 (racemic)

>  <log10 of concentration at 4 h>
0.65

$$$$
>  <compound>
COc1c(C#N)ccc2[nH]c(-c3nc4n(n3)CCO[C@H]4c3cccc(F)c3C)cc12

>  <log10 of concentration at 4 h>
0.40

$$$$
>  <compound>
COc1c(C#N)ccc2[nH]c(-c3cn4c(n3)[C@H](c3ccccc3Cl)OCC4)cc12

>  <log10 of concentration at 4 h>
0.92

$$$$
